Tested on: Aorta
Test: Vasorelaxation activity on KCl-induced contractile tone in Wistar rat thoracic aortic ring
Assay type: functional, tissue-based
pIC50: −log10 of the molar value.
Note to self: values exactly at 5 are satisfied. So pIC50 at or above 5 is satisfied, below is not satisfied.

>>> assigned_category("CC1=Nc2ccc(Cl)cc2S(=O)(=O)N1 [DIAZOXIDE]")
"not satisfied"
>>> assigned_category("CC(=O)Nc1ccc(CN2CCOC3(C2)CC(C)(C)Oc2ccc(Br)cc23)cc1 (racemic)")
"satisfied"
>>> assigned_category("CC(=O)Nc1ccc(CN2CC3(CC(C)(C)Oc4ccccc43)OCC2=O)cc1 (racemic)")
"not satisfied"
>>> assigned_category("CC1(C)Oc2ccc(C#N)cc2C(N2CCCC2=O)C1O (racemic)")
"satisfied"
>>> assigned_category("CC(=O)Nc1ccc(CN2CC3(CC(C)(C)Oc4ccc(Br)cc43)OCC2=O)cc1 (racemic)")
"not satisfied"

* * *

System: Rattus norvegicus
Assay: Activity in Langendorff perfused Wistar rat heart subjected to ischemia-reperfusion cycles at 40 mg/kg, ip after 120 mins
Assay type: functional
Settings: route intraperitoneal
READOUT_LABEL: Activity (%)

>>> readout_value("CC1=Nc2ccc(Cl)cc2S(=O)(=O)N1 [DIAZOXIDE]")
47
>>> readout_value("CC(=O)Nc1ccc(CN2CC3(CC(C)(C)Oc4ccc(Br)cc43)OCC2=O)cc1 (racemic)")
3
>>> readout_value("CC1(C)CC2(CN(Cc3ccc(NS(C)(=O)=O)cc3)CCO2)c2cc(Br)ccc2O1 (racemic)")
77
>>> readout_value("CC(=O)Nc1ccc(CN2CCOC3(C2)CC(C)(C)Oc2ccccc23)cc1 (racemic)")
17
>>> readout_value("CC(=O)Nc1ccc(CN2CC3(CC(C)(C)Oc4ccccc43)OCC2=O)cc1 (racemic)")
62
>>> readout_value("CC(=O)Nc1ccc(CN2CCOC3(C2)CC(C)(C)Oc2ccc(Br)cc23)cc1 (racemic)")
26
>>> readout_value("CC1(C)CC2(CN(Cc3ccc(NS(C)(=O)=O)cc3)C(=O)CO2)c2cc(Br)ccc2O1 (racemic)")
57

Where these numbers come from: ChEMBL document CHEMBL1138211
